Tested on: Pythium ultimum
Experiment: Fungitoxicity assay against Pythium ultimum (in vitro, mycelial dry weight)
Format: cell-based
Settings: Globisporangium ultimum, 48 hours at 25° C., read-out: Pythium EC50
Experimental: The compounds of Examples 1-20 were tested in vitro for fungicidal activity and phytotoxicity. A. The compounds were tested in vitro for fungicidal activity against Pythium ultimum, Botrytis cinerea and Venturia inaequalis. […] The increase in mycelial dry weight was determined after growth for 48 hours at 25° C. with shaking on a gyrotary shaker at 60 revolutions per minute (rpm). EC50 values were calculated from dose response curves. […]
Exam item: assign TRUE to entries whose IC50 is below 2 µg/mL and FALSE to entries at or above 2 µg/mL. Note that a value of exactly 2 µg/mL receives FALSE.

Some solved entries appear below for comparison.
| compound | group label |
| --- | --- |
| CCC(C)(NC(=O)c1cccc(C=NOC)c1)C(=O)C(Cl)Cl (stereo not drawn) | FALSE |
| CCC(C)(NC(=O)c1cccc(C=NOC(C)(C)C)c1)C(=O)CCl (stereo not drawn) | FALSE |
| CCC(C)(NC(=O)c1ccc(C=NOC)cc1)C(=O)CCl (stereo not drawn) | TRUE |
| CON=Cc1cccc(C(=O)NC(C)(C)C(=O)CCl)c1 | TRUE |
| CCC(C)(NC(=O)c1ccc(Cl)c(C=NOC)c1)C(=O)CCl (stereo not drawn) | FALSE |

Lab note: confirm whether the reported IC50 for this compound is below 2 µg/mL, equality not counting. compound: CCON=Cc1cccc(C(=O)NC(C)(CC)C(=O)C(Cl)Cl)c1 (stereo not drawn)
FALSE

# TODO verify IC50 < 2 µg/mL strictly for this compound: CCC(C)(NC(=O)c1ccc(C=NOC)c(Cl)c1)C(=O)CCl (stereo not drawn)
TRUE

Please determine if CCC(C)(NC(=O)c1cccc(C(C)=NOC)c1)C(=O)CCl (stereo not drawn) is below 2 µg/mL in terms of IC50.
FALSE

###

Assay: Tobacco root assay for phytotoxicity (in vitro root elongation)
Settings: 7 days, 27° C., read-out: Tob. EC50
IC50 at 168 h listing for selected compounds.
Numbers only; they are read as µg/mL.

Previously resolved entries follow.
| compound | readout kind | result value |
| --- | --- | --- |
| CCC(C)(NC(=O)c1cc(Cl)cc(C=NOC)c1)C(=O)CCl (stereo not shown) | IC50 at 168 h | 0.06 |
| CCC(C)(NC(=O)c1ccc(Cl)c(C=NOC)c1)C(=O)CCl (stereo not shown) | IC50 at 168 h | 1.25 |
| CCC(C)(NC(=O)c1ccc(C=NOC)cc1)C(=O)CCl (stereo not shown) | IC50 at 168 h | 21.7 |

For the next question, use this compound.
Quickly give me recorded IC50 at 168 h for CCC(C)(NC(=O)c1ccc(C=NOC)c(Cl)c1)C(=O)CCl (stereo not shown)
11.3

###

Assay: Tobacco root assay for phytotoxicity (in vitro root elongation)
Settings: 7 days, 27° C., read-out: Tob. EC50
Below: a set of entries, each annotated with reported IC50 at 168 h.
Respond numerically; units are µg/mL and should not be typed.

// worked examples, IC50 at 168 h included
| compound | IC50 at 168 h [µg/mL] |
| --- | --- |
| CCC(C)(NC(=O)c1cccc(C=NOC(C)(C)C)c1)C(=O)CCl (stereo not drawn) | 46.8 |
| CCC(C)(NC(=O)c1cc(C=NOC)cc(C=NOC)c1)C(=O)CCl (stereo not drawn) | 2.33 |
| CCC(C)(NC(=O)c1cc(Cl)c(C=NOC)c(Cl)c1)C(=O)CCl (stereo not drawn) | 1 |

Complete the entry with IC50 at 168 h for CCON=Cc1cccc(C(=O)NC(C)(CC)C(=O)CCl)c1 (stereo not drawn)
5.35

Return IC50 at 168 h (reported value) for this compound: CON=Cc1cccc(C(=O)NC(C)(C)C(=O)CCl)c1
4.94

Note IC50 at 168 h for the compound shown: CCC(C)(NC(=O)c1cccc(C=NOC)c1)C(=O)CCl (stereo not drawn)
1.86

Provide measured IC50 at 168 h value, entry: CCC(C)(NC(=O)c1cccc(C=NOCC(=O)OC)c1)C(=O)CCl (stereo not drawn)
9.48

Report IC50 at 168 h, nothing else, for this compound: CCC(C)(NC(=O)c1cc(C)cc(C=NOC)c1)C(=O)CCl (stereo not drawn)
0.38
